System: Human breast cancer cell line ZR-75-1
Test: Caspase cascade activation assay (N-(Ac-DEVD)-N'-ethoxycarbonyl-R110 fluorogenic substrate) in ZR-75-1 cells
Format: cell-based
Details: ZR-75-1 cells, 24 h incubation with compound; ratio of net RFU (T=3 h) of test compound to control
Field: Caspase activity (Ratio) ZR-75-1. Provide a value for each of the compounds that follow.

Below, each entry is followed by its recorded Caspase activity (Ratio) ZR-75-1 result.
* CCNc1ccc2c(c1)OC(N)=C(C#N)C2c1cncc(C)c1 (stereo not drawn) | 11.0
* COc1cc(C2C(C#N)=C(N)Oc3cc(N)ccc32)cc(Br)c1O (stereo not drawn) | 5.8
* CCNc1ccc2c(c1)OC(N)=C(C#N)C2c1cccc(Cl)c1 (stereo not drawn) | 10.1
* CC1(c2ccccc2)C(C#N)=C(N)Oc2ccccc21 (stereo not drawn) [Example 68B] | 1.8
* N#CC1=C(N)Oc2cc(N)ccc2C1c1cc(Cl)cc(Cl)c1 (stereo not drawn) | 4.4
* COc1ccc2c(c1)OC(N)=C(C#N)C2c1cc(OC)c(OC)c(OC)c1 (stereo not drawn) | 4.5
* COc1cc(C2(C)C(C#N)=C(N)Oc3cc(N(C)C)ccc32)cc(Br)c1OC (stereo not drawn) [Example 68A] | 6.5
* N#CC1=C(N)OC2C3=CC=NC3=CC=C2C1c1cccnc1 (stereo not drawn) | 8.8

-- ask Query (compound): N#CC1=C(N)Oc2cc(N)ccc2C1c1cccc([N+](=O)[O-])c1 (stereo not drawn) ; field requested: Caspase activity (Ratio) ZR-75-1
-- reply 9.7

----------
Tested on: Human breast cancer cell line ZR-75-1
Test: Caspase cascade activation assay (N-(Ac-DEVD)-N'-ethoxycarbonyl-R110 fluorogenic substrate) in ZR-75-1 cells
Format: cell-based
Conditions: ZR-75-1 cells, 24 h incubation; sigmoidal dose-response; read-out: Caspase potency EC50 (nM) ZR-75-1
Mark yes for EC50 under 100 nM, no if at or over.

- N#CC1=C(N)Oc2c(ccc3cc[nH]c23)C1c1cccc(C(F)(F)F)c1 (centres unmarked) [Example 54]: no
- COc1cc(C2C(C#N)=C(N)Oc3cc(N4CCNCC4)ccc32)cc(Br)c1OC (centres unmarked) [Example 66B]: no
- COC(=O)C1=C(N)Oc2c(ccc3[nH]ccc23)C1c1cc(Br)c(OC)c(OC)c1 (centres unmarked) [Example 73]: yes
- C1CCNCC1.C1CCNCC1.COc1cc(C2C(C#N)=C(N)Oc3c2ccc2[nH]ccc32)cc(Br)c1OP(=O)(O)O (centres unmarked) [Example 69]: no

-- ask I'd appreciate it if you could check whether N#CC1=C(N)Oc2ccccc2C1c1ccccc1 (centres unmarked) [Example 29, 2-Amino-3-cyano-4-phenyl-4-H-chromene] has EC50 smaller than 100 nM.
-- reply no

-- ask Note, next up: COc1cc(C2C(C#N)=C(N)Oc3cc(-n4cccc4)ccc32)cc(Br)c1OC (centres unmarked) [Example 67]
-- reply no

-- ask Note, next up: COc1cc(C2C(C#N)=C(N)Oc3c2ccc2[nH]cnc32)cc(Br)c1OC (centres unmarked) [Example 64]
-- reply yes

-- ask Note, next up: COc1cc(C2C(C#N)=C(N)Oc3c2ccc2[nH]c(=O)[nH]c32)cc(Br)c1OC (centres unmarked) [Example 80]
-- reply yes

-- ask Note, next up: COc1cc(C2C(C#N)=C(N)Oc3cc(N4CCOCC4)ccc32)cc(Br)c1OC (centres unmarked) [Example 66C]
-- reply yes

----------
System: Human breast cancer cell line ZR-75-1
Experiment: Caspase cascade activation assay (N-(Ac-DEVD)-N'-ethoxycarbonyl-R110 fluorogenic substrate) in ZR-75-1 cells
Assay type: cell-based
Conditions: ZR-75-1 cells, 24 h incubation with compound; ratio of net RFU (T=3 h) of test compound to control
Returns yes (1) if the recorded Caspase activity (Ratio) ZR-75-1 is greater than or equal to 7, and no (0) otherwise.

Field: example entries. Status: answers known.
• Cc1cc2c(cc1Cl)C(c1ccccc1)C(C#N)=C(N)O2 (stereo not shown) = yes (1)
• N#CC1=C(N)OC2C3=CC=NC3=CC=C2C1c1cncc(Br)c1 (stereo not shown) = no (0)
• CCNc1ccc2c(c1)OC(N)=C(C#N)C2c1cccc(OC)c1 (stereo not shown) = no (0)
• COc1cc(C2C3=CC=C4C=CN=C4C3OC(N)=C2C#N)cc(Br)c1OC (stereo not shown) = yes (1)

-- ask Textbook exercise: given the entry COc1cc(C2C(C#N)=C(N)Oc3c2ccc2[nH]c(C)nc32)cc(Br)c1OC (stereo not shown) , state whether its Caspase activity (Ratio) ZR-75-1 is greater than or equal to 7.
-- reply no (0)

-- ask Note, next up: COc1cc(C2C(C#N)=C(N)Oc3cc(Cl)ccc32)cc(Br)c1OC (stereo not shown)
-- reply yes (1)

-- ask Note, next up: COC(=O)C1=C(N)Oc2c(ccc3[nH]ccc23)C1c1cc(Br)c(OC)c(OC)c1 (stereo not shown)
-- reply yes (1)

-- ask Note, next up: COc1cc(C2C3=CC=C4C=CN=C4C3OC(N)=C2C#N)cc(Br)c1O (stereo not shown)
-- reply no (0)

-- ask Note, next up: COc1cc(C2C(C#N)=C(N)Oc3cc(Br)ccc32)cc(Br)c1OC (stereo not shown)
-- reply no (0)

-- ask Note, next up: N#CC1=C(N)Oc2cc(N)ccc2C1c1cccc(Br)c1 (stereo not shown)
-- reply yes (1)

----------
System: Human breast cancer cell line ZR-75-1
Test: Caspase cascade activation assay (N-(Ac-DEVD)-N'-ethoxycarbonyl-R110 fluorogenic substrate) in ZR-75-1 cells
Type: cell-based
Conditions: ZR-75-1 cells, 24 h incubation with compound; ratio of net RFU (T=3 h) of test compound to control
Returns Condition met if the recorded Caspase activity (Ratio) ZR-75-1 is greater than or equal to 7, and Condition not met otherwise.

Field: example entries. Status: answers known.
- C1CCNCC1.C1CCNCC1.COc1cc(C2C(C#N)=C(N)Oc3c2ccc2[nH]ccc32)cc(Br)c1OP(=O)(O)O (stereo not drawn): Condition not met
- CCNc1ccc2c(c1)OC(N)=C(C#N)C2c1cncc(Br)c1 (stereo not drawn): Condition met
- COc1cc(C2C(C#N)=C(N)Oc3c2ccc2nccnc32)cc(Br)c1OC (stereo not drawn): Condition met
- COc1ccc2c(c1)OC(N)=C(C#N)C2c1ccccc1 (stereo not drawn): Condition not met
- COc1cc(C2C(C#N)=C(N)Oc3cc(N4CCOCC4)ccc32)cc(Br)c1OC (stereo not drawn) [Example 66C]: Condition met

Read the next record carefully.
-- ask Textbook exercise: given the entry COc1cncc(C2C(C#N)=C(N)Oc3cc(N)ccc32)c1 (stereo not drawn) , state whether its Caspase activity (Ratio) ZR-75-1 is greater than or equal to 7.
-- reply Condition met

----------
Field: Caspase activity (Ratio) ZR-75-1. Provide a value for each of the molecules that follow.
Tested on: Human breast cancer cell line ZR-75-1
Assay: Caspase cascade activation assay (N-(Ac-DEVD)-N'-ethoxycarbonyl-R110 fluorogenic substrate) in ZR-75-1 cells
Type: cell-based
Conditions: ZR-75-1 cells, 24 h incubation with compound; ratio of net RFU (T=3 h) of test compound to control
Give bare numbers.

Provide Caspase activity (Ratio) ZR-75-1 for all items below, preserving their order.
1. N#CC1=C(N)Oc2cc(N)ccc2C1c1cc(F)cc(F)c1 (centres unmarked)
2. COc1cc(C2C(C#N)=C(N)Oc3cc(N(C)C)ccc32)cc(Br)c1O (centres unmarked)
3. COc1ccc2c(c1)OC(N)=C(C#N)C2c1cccc(C#N)c1 (centres unmarked)
4. COc1cc(C2C(C#N)=C(N)Oc3cc(N4CCCC4)ccc32)cc(Br)c1OC (centres unmarked) [Example 66A]

-- reply
1: 7.1; 2: 6.1; 3: 7.1; 4: 6.0

-- ask Query (molecule): COc1cccc(C2C(C#N)=C(N)Oc3c2ccc2nccnc32)c1 (centres unmarked) ; field requested: Caspase activity (Ratio) ZR-75-1
-- reply 3.6

----------
Tested on: Human breast cancer cell line ZR-75-1
Experiment: Caspase cascade activation assay (N-(Ac-DEVD)-N'-ethoxycarbonyl-R110 fluorogenic substrate) in ZR-75-1 cells
Format: cell-based
Conditions: ZR-75-1 cells; additional compounds, Table II
Method: Human breast cancer cell lines T-47D and ZR-75-1 were grown according to media component mixtures designated by American Type Culture Collection +10% FCS (Invitrogen Corporation), in a 5% CO2-95% humidity incubator at 37° C. […] After the 3 h incubation, the samples were read for fluorescence as above (T=3 h). The Relative Fluorescence Unit values (RFU) were used to calculate the sample readings as follows: RFU(T=3h)−Control RFU(T=0)=Net RFU(T=3h) […]
parameter-measured: Caspase activity (Ratio) ZR-75-1, Table II
One number for each entry.

• N#CC1=C(N)Oc2cc(N)ccc2C1c1cccc(I)c1 (centres unmarked) = 5.1

Provide Caspase activity (Ratio) ZR-75-1, Table II for all items below, preserving their order.
1. COc1cc(C2C(C#N)=C(N)Oc3cc(O)ccc32)cc(OC)c1OC (centres unmarked)
2. COc1cc(C2C(C#N)=C(N)Oc3cc(N)ccc32)cc(OC)c1OC (centres unmarked)
3. N#CC1=C(N)Oc2cc(N)ccc2C1c1ccccc1 (centres unmarked)

-- reply
1: 10.3; 2: 3.5; 3: 8.6
